Value source: ChEMBL document CHEMBL1201862

tested on: NCI-H226; test: NCI tumour cell line growth inhibition, 48 h
Calls of active or inactive are those of the source. Rule as the data show it: active = GI50 up to about 1.1 µM and inactive = higher.
Assign a class; possible classes are TRUE (active), FALSE (inactive)

Solved cases below.
# COMPOUND, TESTED_TARGET, ASSIGNED_LABEL
data = [
    ("O=C(Cc1nc2ccccc2[nH]c1=O)c1c[nH]c2ccccc12", "NCI-H226", "FALSE"),
    ("C[C@]12CCC[C@H](OC=O)C1(O)C[C@H](C(=O)O)CC2 (some centres undefined)", "NCI-H226", "FALSE"),
    ("COc1ccc(C(=O)/C(Br)=C/C(=O)O)cc1", "NCI-H226", "FALSE"),
]

Short answer needed: outcome of this test for CSc1c(C#N)c(O)nc(N)c1C(=O)Nc1ccc(C)cc1 ? FALSE

Same read-out for c1ccc2c(c1)sc1c3cnccc3ccc21 ? FALSE

Same read-out for CCOc1ccc(/N=C/c2cccc3cccnc23)cc1 ? FALSE

Same read-out for CSC1=C(C)C(/C=N/Nc2ccc([N+](=O)[O-])cc2)=C(C)N(c2ccccc2)S1(=O)=O ? FALSE

Same read-out for COc1cc(N(CCC#N)CCC#N)ccc1C(/N=N/c1cccc(C)c1)=N\NC(=O)c1ccc(C)cc1 ? FALSE

Same read-out for O=[N+]([O-])c1cc(Cl)cc2cc(Cl)cnc12 ? FALSE

Same read-out for OCCN(CO)CO ? FALSE

Same read-out for CC(=O)NC(ON1C(=O)COc2ccccc21)C(Cl)(Cl)Cl (centres undefined) ? FALSE

* * *

test system: OVCAR-4; assay: NCI tumour cell line growth inhibition, 48 h
Active and inactive are the calls of the source. No stated cut-off is given here; in the data, active = GI50 up to about 1.1 µM and inactive = higher. Non-standard residues stand in square brackets, D forms with d. Residues, ends and D or L forms follow the SMILES beside them. β3hI = CC[CH](C)[CH](N)CC(=O)O
Assign a class; possible classes are class 1 (active), class 0 (inactive)

Short answer needed: outcome of this test for O=C1C=CC(=O)N1n1c(Cc2ccccc2)n[nH]c1=O ? class 0

Same read-out for O=C(NC/C=C/Br)NC1CCNc2ccccc21 (configuration not stated) ? class 0

Same read-out for COc1ccc(CC(=O)c2cc(OC)c(OC)cc2C)cc1OC ? class 0

Same read-out for O=C(O)Cc1c[nH]c2ccc(F)cc12 ? class 0

Same read-out for COC(=O)/C(=N\NC(N)=O)C(C(=O)C=C(C)C)C(=O)C(=O)Nc1ccc(Cl)c(Cl)c1 (configuration not stated) ? class 0

Same read-out for COc1ccc(OC)c(N2C(=O)CSC2c2cc(OC)c(OC)c(OC)c2)c1 (configuration not stated) ? class 0

Same read-out for Cc1cccc(-c2cc(O)c3c(C)cc(C)nc3n2)c1 ? class 0

Same read-out for COC1OC2COC(C)(C)OC2C2OC(C)(C)OC12 (configuration not stated) ? class 0

Same read-out for CCC(C)C(CC(=O)N1CCCC1C(=O)NC(C(=O)NC(C(=O)NCC(=O)NC(CC(N)=O)C(=O)NC(C(=O)NC(C(=O)NC(CCCCN)C(N)=O)C(C)CC)C(C)CC)C(C)C)C(C)CC)NC(=O)C(N)C(C)CC (stereo not drawn) (H-I[β3hI]PIVGNIIK-NH2; configuration not given here) ? class 0

Same read-out for COc1ccc(COCC[C@H](C)OC2OC(CO)C(O)C(O)C2O)cc1 (some centres not stated) ? class 0

Same read-out for COc1cc(C2c3cc4c(cc3[C@@H](NCCN3CCOCC3)C3COC(=O)[C@H]23)OCO4)cc(OC)c1O (some centres not stated) ? class 0

Same read-out for C=CCOc1ccc2c(C)cc(=O)oc2c1C ? class 0

Same read-out for CC(=O)O[C@H]1CC[C@@]2(C)C(=CC[C@@H]3[C@@H]2CC[C@]2(C)C(=N/O)/C(=C\c4ccccc4)C[C@@H]32)C1 ? class 0

* * *

test system: EKVX; test: NCI tumour cell line growth inhibition, 48 h
The source made the active and inactive calls. Rule as the data show it: active = GI50 up to about 1.1 µM and inactive = higher.
Assign a class; possible classes are active, inactive

# COMPOUND, ASSIGNED_LABEL
measured = [
    ("COc1ccccc1NC(=S)N/N=C/c1cccc(C)n1", "inactive"),
    ("COc1ccc([C@@H]2OC(=O)C3C2C(=O)O[C@H]3c2ccc(OC)c(OC)c2)cc1OC (stereo partly specified)", "inactive"),
    ("Cc1ccsc1C(=S)Nc1ccc(Cl)c(/C=N/OC(C)C)c1", "inactive"),
    ("COc1ccc(CCN2CCN(CCCc3ccccc3)CC2)cc1", "inactive"),
    ("Cn1cc(C[C@@H](N)C(=O)O)c2ccccc21", "inactive"),
]

--- query ---
Short answer needed: outcome of this test for CC(=O)C1=C(C)Cn2c(=O)c3ccccc3c(=O)n2C1 ? inactive

* * *

# GI50 per entry
system: UACC-257; test: NCI tumour cell line growth inhibition, 48 h
Activity calls are given as the source filed them. Rule as the data show it: active = GI50 up to about 1.1 µM and inactive = higher.

Please review the following examples before continuing.
# MOLECULE, VALUE_TYPE, VAL
rows = [
    ("O=C(O)CCC(NC(=O)c1ccc(Nc2cnc3ccc(C(F)(F)F)cc3n2)cc1)C(=O)O (stereo not given)", "GI50", "> 100 µM (inactive)"),
    ("CCOC(=O)C(=O)Nc1c(C)cccc1C(C)C", "GI50", "> 100 µM (inactive)"),
    ("CC(Oc1ccc2c(=O)cc(-c3ccccc3)oc2c1)C(=O)O (stereo not given)", "GI50", "> 100 µM (inactive)"),
    ("O=c1oc2c(Br)c(O)c(Br)cc2c2ccccc12", "GI50", "18 µM (inactive)"),
]

Item: COc1ccc([C@]23CCC4(OCC(C)(C)CO4)[C@H]4CON(O[C@H](O[C@@H]5CCCCC5C(C)(C)c5ccccc5)C2)[C@@H]43)cc1OC (stereo not given in full) Test system: UACC-257 Read-out: GI50 Value: ? 36.6 µM (inactive)

* * *

What follows is a record of GI50 for HCT-15.
Give the number; µM is assumed, so skip it.

# COMPOUND, VAL
measured = [
    ("CSc1nc(-c2ccccc2)nc(N2CCOCC2)[s+]1", 37.8),
    ("COc1ccc(NC(C)=O)cc1N1C(=O)/C(=C\\c2cccc(Oc3ccccc3)c2)S(=O)(=O)C1c1ccccc1 (stereo not given)", 39),
]

Fill blank: measured GI50 of the compound O=C1C(c2ccc(Br)cc2)=[N+]([O-])c2ccccc21 is ____. 5.97

* * *

system: A498; experiment: NCI tumour cell line growth inhibition, 48 h
The source made the active and inactive calls. No stated cut-off is given here; in the data, active = GI50 up to about 1.1 µM and inactive = higher.
VALUE_TYPE: GI50

Please review the following examples before continuing.
# MOLECULE, GI50
measured = [
    ("Cc1ccc(O)c(-c2cc(-c3cccc(Br)c3)on2)c1", "68.9 µM (inactive)"),
    ("CCN(CC)CCCNc1ncc(C)c2[nH]c3ccncc3c12", "17.6 µM (inactive)"),
    ("CN(C)C(=S)SCC(=O)Nc1ccccc1", "> 100 µM (inactive)"),
    ("CC(C)=C=CP(=O)(O)c1ccccc1", "> 100 µM (inactive)"),
    ("CN(C)CCC(CCN(C)C)=NOC(=O)c1ccccc1", "> 100 µM (inactive)"),
]

Item: CCOC(=O)C(NC(=O)Nc1ccccc1)(Nc1cccc(Cl)c1)C(F)(F)F (stereo not given) Test system: A498 Read-out: GI50 Value: ? > 66.4 µM (inactive)

Same read-out for O=C(c1cc2ccccc2[nH]1)N1C2CCC1CN(CCOC(c1ccc(F)cc1)c1ccc(F)cc1)CC2 (stereo not given) ? > 100 µM (inactive)

Same read-out for CC(=O)OC1COC(N2CCc3cc([N+](=O)[O-])ccc32)C(OC(C)=O)C1OC(C)=O (stereo not given) ? 7.23 µM (inactive)

Same read-out for Cc1cccc(C)c1NC(=O)C(=O)CC(=O)c1cccc([N+](=O)[O-])c1 ? > 100 µM (inactive)

Same read-out for COc1ccc(NC(C)=O)cc1N1C(=O)/C(=C\c2cccc(Oc3ccccc3)c2)S(=O)(=O)C1c1ccccc1 (stereo not given) ? > 100 µM (inactive)

* * *

system: CCRF-CEM; assay: NCI tumour cell line growth inhibition, 48 h
Activity calls are given as the source filed them. Rule as the data show it: active = GI50 up to about 1.1 µM and inactive = higher.
Assign a class; possible classes are active, inactive

# COMPOUND, TESTED_TARGET, ASSIGNED_LABEL
measured = [
    ("COc1cc2c(cc1OC)C1c3ccccc3CCN1CCC2.[O-][Cl+3]([O-])([O-])O (stereo unspecified)", "CCRF-CEM", "inactive"),
]

--- query ---
Short answer needed: outcome of this test for OC(c1ccccc1)c1c(-c2ccccc2)[nH]c(-c2ccccc2)c1C(O)c1ccccc1 (stereo unspecified) ? inactive

* * *

tested on: HCC 2998; experiment: NCI tumour cell line growth inhibition, 48 h
The source made the active and inactive calls. No stated cut-off is given here; in the data, active = GI50 up to about 1.1 µM and inactive = higher.
VALUE_TYPE: GI50

# COMPOUND, TESTED_TARGET, VALUE_TYPE, VAL
measured = [
    ("CNC(=S)OCCC(C)CCCC(C)C (centres undefined)", "HCC 2998", "GI50", "18 µM (inactive)"),
]

Item: COC(=O)c1cc(C(=O)OC)cc(-c2ccc3c(c2)-c2nc4c(c(-c5ccc(OC)cc5)c2CC3)CCc2ccc(-c3cc(C(=O)OC)cc(C(=O)OC)c3)cc2-4)c1 Test system: HCC 2998 Read-out: GI50 Value: ? > 100 µM (inactive)

Same read-out for NC(=O)c1cc(N2CC2)c([N+](=O)[O-])cc1[N+](=O)[O-] [TRETAZICAR] ? > 100 µM (inactive)

Same read-out for Cc1cccc2[n+]1[C@H]1[C@H]([C@@H]3O[C@H]1c1ccccc13)[S+]([O-])N2 (some centres undefined) ? 72.8 µM (inactive)
